studySystem: T1, Human v6-peptide (human, N-terminal biotin)
T1 construct: Bachem #4108947, 43 amino acids, synthetic; also called Hm v6-peptide; hm v6-peptide
T1 peptide: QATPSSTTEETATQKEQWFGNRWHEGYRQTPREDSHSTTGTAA
experimentalDetails: SPR SCK, antibody immobilised, peptide injected
valueType: Kd (µM)
Expressed in µM, but write only the number.

Asked: Identify the reported Kd for the following entry. AL-MN114-132 IgG1 LALA (antibody, V domains shown, item 20 iii) gives heavy 77 / light 96 without naming the format) VH: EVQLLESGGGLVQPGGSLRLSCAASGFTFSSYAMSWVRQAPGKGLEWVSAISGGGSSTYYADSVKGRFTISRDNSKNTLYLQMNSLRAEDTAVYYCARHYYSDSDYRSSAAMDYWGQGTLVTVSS VL: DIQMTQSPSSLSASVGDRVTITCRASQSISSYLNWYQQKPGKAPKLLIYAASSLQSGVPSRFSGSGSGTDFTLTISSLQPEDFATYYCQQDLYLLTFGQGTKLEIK
Given back: 0.012

meta.source: patent US20250340662A1
